Data credit: ChEMBL document CHEMBL1140002

- target.under.test: Sodium- and chloride-dependent GABA transporter 1 (Mus musculus)
- procedure.text: Inhibition of [3H]GABA uptake at mouse GAT1 expressed in D8 cells
pIC50: −log10 of the molar value. Counter-ions that a name gives are not always drawn.
The following ranges of pIC50 define the classes used here: low = under 3, mid = from 3 up to 5, high = 5 and over

Illustrative cases are given below, each with its answer.
Lookup: State the band of O=C(O)[C@@H]1CCCN(CC[S+]([O-])C(c2ccccc2)c2ccccc2)C1 (stereo not given in full)
Found: high

Lookup: State the band of Cc1ccccc1C(c1cccc(C)c1C)[S+]([O-])CCN1CCC[C@@H](C(=O)O)C1 (stereo not given in full)
Found: mid

Lookup: State the band of Cc1ccccc1C(SCCN1CCC[C@@H](C(=O)O)C1)c1cccc(C)c1C (stereo not given in full)
Found: low

Lookup: State the band of COc1ccc(C(SCCN2CCC[C@@H](C(=O)O)C2)c2ccc(OC)cc2)cc1
Found: low

Lookup: State the band of Cc1ccc(C(SCCN2CCC[C@@H](C(=O)O)C2)c2ccc(C)cc2)cc1
Found: mid

Lookup: State the band of Cc1ccsc1C(=CCCN1CCC[C@@H](C(=O)O)C1)c1sccc1C [TIAGABINE HYDROCHLORIDE]
Found: high

Lookup: State the band of COc1ccc(C(c2ccc(OC)cc2)[S+]([O-])CCN2CCC[C@@H](C(=O)O)C2)cc1 (stereo not given in full)
Found: mid

Lookup: State the band of O=C(O)[C@@H]1CCCN(CCSC(c2ccccc2)c2ccccc2)C1
Found: low

We now examine a further compound.
Lookup: State the band of Cc1ccccc1C(SCCCN1CCC[C@@H](C(=O)O)C1)c1cccc(C)c1C (stereo not given in full)
Found: mid
